system.tested: recombinant human His-ATG7 enzyme (Homo sapiens (Human))
Sequence (O95352 whole entry): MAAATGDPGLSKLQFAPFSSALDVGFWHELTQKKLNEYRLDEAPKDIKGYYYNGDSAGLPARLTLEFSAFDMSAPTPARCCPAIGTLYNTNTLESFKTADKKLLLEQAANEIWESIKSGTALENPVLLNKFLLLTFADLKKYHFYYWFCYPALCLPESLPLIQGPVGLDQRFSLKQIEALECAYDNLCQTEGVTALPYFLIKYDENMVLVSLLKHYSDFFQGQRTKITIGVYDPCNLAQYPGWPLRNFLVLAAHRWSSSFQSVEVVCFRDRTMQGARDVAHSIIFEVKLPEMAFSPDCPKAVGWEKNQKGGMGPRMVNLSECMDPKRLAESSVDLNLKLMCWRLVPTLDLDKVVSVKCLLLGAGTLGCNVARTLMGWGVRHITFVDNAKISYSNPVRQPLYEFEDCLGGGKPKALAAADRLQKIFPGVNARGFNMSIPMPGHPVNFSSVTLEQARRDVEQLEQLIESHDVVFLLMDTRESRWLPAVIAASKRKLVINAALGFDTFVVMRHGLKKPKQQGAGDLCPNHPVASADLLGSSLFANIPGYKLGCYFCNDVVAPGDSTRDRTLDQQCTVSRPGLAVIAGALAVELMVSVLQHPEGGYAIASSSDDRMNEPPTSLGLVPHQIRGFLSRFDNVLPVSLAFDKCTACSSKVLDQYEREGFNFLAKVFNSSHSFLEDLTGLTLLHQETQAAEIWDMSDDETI
experiment.description: ATG7 Enzyme Assay (HTRF/FRET, ATG3-GST and Flag-Gabarap)
pIC50: −log10 of the molar value.
assay.readout: pIC50

Record excerpt, results attached:
Nc1ncnc2c1c(Sc1ccccn1)nn2[C@H]1C[C@H](O)[C@@H](COS(N)(=O)=O)O1 7.30 to 7.70
NC(=O)c1nn([C@@H]2O[C@H](COS(N)(=O)=O)[C@@H](O)[C@H]2O)c2ncnc(N)c12 6.30 to 7.00
COc1ccc(Sc2nn([C@H]3C[C@H](O)[C@@H](COS(N)(=O)=O)O3)c3ncnc(N)c23)c(F)c1 7.30 to 7.70

Input line: Query: pIC50; subject: Nc1ncnc2c1c(Sc1ccc3c(c1)CCC3)nn2[C@H]1C[C@H](O)[C@@H](COS(N)(=O)=O)O1
Output line: 7.00 to 7.30
